assay: Kinetic solubility of the compound in pH 7.4 buffer measured after 24 hrs by LC-UV analysis; type: physicochemical; settings: read-out: Kinetic_solubility
QUANTITY_KIND: solubility kinetic at 24 h

# count of solved cases: 2
CCOc1cc(Oc2cc(C)c(Cl)c(C)c2)cc2c1OCC(=O)N[C@H]1CC[C@H](CC1)CC(=O)N[C@@H](c1ccccc1)C(=O)N1CCC[C@@H]1C(=O)NCCc1ccc(cc1)OC2 : < 2 µM
CCOc1cc(Oc2cc(C)c(Cl)c(C)c2)cc2c1OCC(=O)N[C@H]1CC[C@H](CC1)CC(=O)N[C@@H](c1ccccc1)C(=O)N[C@H](Cc1ccccc1)C(=O)N[C@H](C(=O)O)Cc1ccc(cc1)NC2 : > 80 µM

Next molecule, solubility kinetic at 24 h to be filled in.
Query: Fill blank: measured solubility kinetic at 24 h of the molecule `CCOc1cc(Oc2cc(C)c(Cl)c(C)c2)cc2c1OCC(=O)N[C@H]1CC[C@H](CC1)CC(=O)N[C@@H](c1ccccc1)C(=O)N[C@H](Cc1cccnc1)C(=O)NCCc1ccc(cc1)OC2` is ____.
Reply: < 2 µM
